# credit: PubChem BioAssay

PROTOCOL_DESCRIPTION: drug combination growth inhibition, ovarian cancer – cell-based, oncology-focused library, rucaparib conditional, profiling panel (AID 1508598)
COND: patient-derived ovarian cancer cells, CellTiter-Glo viability, 144 h; at 0.313 µM; OCI-P5x cells; without rucaparib; hits give low values
Below: a set of entries, each annotated with reported viability.
// units = %; emit number, no label

Recorded results for 6 molecules are shown here.
>>> observed_value("COc1cc(C(=O)NC2CCN(C)CC2)ccc1Nc1ncc2c(n1)N(C1CCCC1)CC(F)(F)C(=O)N2C")
15.5
>>> observed_value("CN(CC(=O)N(Cc1ccc(C2CCCCC2)cc1)c1ccc(C(=O)O)cc1)S(=O)(=O)c1c(F)c(F)c(F)c(F)c1F")
95.1
>>> observed_value("CO[C@H]1C[C@H]2CC[C@@H](C)[C@@](O)(O2)C(=O)C(=O)N2CCCC[C@H]2C(=O)O[C@H]([C@H](C)C[C@@H]2CC[C@H](OP(C)(C)=O)[C@H](OC)C2)CC(=O)[C@H](C)/C=C(\\C)[C@@H](O)[C@@H](OC)C(=O)[C@H](C)C[C@H](C)/C=C/C=C/C=C/1C")
60.4
>>> observed_value("O=c1[nH]c(=O)n([C@@H]2C[C@H](O)[C@@H](CO)O2)cc1F")
98.4
>>> observed_value("COc1cccc2c1C(=O)c1c(O)c3c(c(O)c1C2=O)C[C@@](O)(C(C)=O)C[C@H]3O[C@H]1C[C@H](N)[C@H](O)[C@H](C)O1")
10.5
>>> observed_value("CC[C@]1(O)C[C@@H]2CN(CCc3c([nH]c4ccccc34)[C@@](C(=O)OC)(c3cc4c(cc3OC)N(C=O)[C@H]3[C@@](O)(C(=O)OC)[C@H](OC(C)=O)[C@]5(CC)C=CCN6CC[C@@]43[C@@H]65)C2)C1")
10.9

Turning now to a further record.
Endpoint output: viability of COc1cc(Br)c(Nc2nc(-c3c(C)nc4ncccn34)cs2)c(Br)c1 . Value?
100
